System: Vero E6 infected with SARS-CoV-2
assay info: inhibition of SARS-CoV-2 cytopathic effect; higher = more antiviral protection, active = above 15
experimental context: 833.33 nM; 48 h
measured attribute: inhibition of SARS-CoV-2 cytopathic effect

| compound | observed value |
| --- | --- |
| N[C@@H]1CCCCN(c2c(F)cc3c(=O)c(C(=O)O)cn(C4CC4)c3c2Cl)C1 [besifloxacin] | 2.48% (inactive) |
| O=C(CCCN1CC=C(n2c(=O)[nH]c3ccccc32)CC1)c1ccc(F)cc1 [droperidol] | -0.44% (inactive) |
| CC(=O)NCCc1c(Cc2ccccc2)[nH]c2ccccc12 [luzindole] | 3.18% (inactive) |
| Oc1cc2c(cc1O)[C@H]1c3ccccc3CN[C@@H]1CC2 (racemic) [dihydrexidine] | -2.04% (inactive) |
| CC12CCC(CC1=O)C2(C)C (stereo not drawn) [camphor-(+)] | 1.82% (inactive) |
| O=C(NO)c1ccc2[nH]c(=O)c(CCCc3ccccc3)nc2c1 | 1.93% (inactive) |
| CN1CCc2cc3c(cc2[C@H]1[C@@H]1OC(=O)c2c1ccc1c2OCO1)OCO3 [bicuculline-(+)] | 0.32% (inactive) |
| CCCC(CCC)C(=O)Nc1ccn([C@@H]2O[C@H](CO)[C@@H](O)C2(F)F)c(=O)n1 | -0.4% (inactive) |
| C[N+]12CCC(CC1)C(OC(=O)C(O)(c1ccccc1)c1ccccc1)C2 (centres undefined) [clidinium] | 0.86% (inactive) |

---

Catalogue of morphology score values
System: Vero E6 infected with SARS-CoV-2
assay info: morphology score (similarity to uninfected cells); higher = more like uninfected cells
experimental context: 24 h

| compound | morphology score |
| --- | --- |
| CC[n+]1c(-c2ccccc2)c2cc(N)ccc2c2ccc(N)cc21 [homidium] (10 µM) | 0.276 |
| CC(=O)O[C@]1(C(C)=O)CC[C@H]2[C@@H]3C=C(C)C4=CC(=O)CC[C@]4(C)[C@H]3CC[C@@]21C [megestrol-acetate] (10 µM) | 0.21 |
| CCOC(=O)c1ncn2c1CN(C)C(=O)c1cc(N=[N+]=[N-])ccc1-2 (10 µM) | 0.00535 |
| CC#C[C@@H](CC(=O)O)c1ccc(OCc2cccc(-c3ccc(C(F)(F)F)cc3)c2)cc1 (10 µM) | 0.0803 |
| O=C(O)c1ccccc1Nc1cccc(OCc2ccc3ccccc3n2)c1 (10 µM) | 0.0319 |
| NC(=O)N1c2ccccc2CC(O)c2ccccc21 (configuration not stated) [licarbazepine] (10 µM) | 0.188 |
| CCCc1nn(C)c2c(=O)[nH]c(-c3cc(S(=O)(=O)N4CCN(C)CC4)ccc3OCC)nc12 [sildenafil] (10 µM) | 0.056 |

---

Test system: Vero E6 infected with SARS-CoV-2
assay info: inhibition of SARS-CoV-2 cytopathic effect; higher = more antiviral protection, active = above 15
experimental context: 10000 nM; 48 h
measured attribute: inhibition of SARS-CoV-2 cytopathic effect

| molecule | observed value |
| --- | --- |
| Cc1nc(-c2cn3c(n2)-c2ccc(-c4cnn(C(C)(C)C(N)=O)c4)cc2OCC3)n(C(C)C)n1 | -8.91% (inactive) |
| CCC[C@@]1(CCc2ccccc2)CC(O)=C([C@H](CC)c2cccc(NS(=O)(=O)c3ccc(C(F)(F)F)cn3)c2)C(=O)O1 | 4.99% (inactive) |
| C/C=C1/[C@H](O[C@@H]2O[C@H](CO)[C@@H](O)[C@H](O)[C@H]2O)OC=C(C(=O)OC)[C@H]1CC(=O)OCCc1ccc(O)c(O)c1 | 0.52% (inactive) |
| C=CCN1CC[C@]23c4c5ccc(O)c4O[C@H]2C(=O)CC[C@@]3(O)[C@H]1C5 | 0.28% (inactive) |
| c1nc2c(NC3CCCCC3)nc(Nc3ccc(N4CCOCC4)cc3)nc2[nH]1 | -7.06% (inactive) |
| COc1ccc(CCC(=O)c2c(O)cc(O[C@@H]3O[C@H](CO)[C@@H](O)[C@H](O)[C@H]3O[C@@H]3O[C@@H](C)[C@H](O)[C@@H](O)[C@H]3O)cc2O)cc1O [Neohesperidin dihydrochalcone (Nhdc)] | -1.64% (inactive) |

---

Test system: Vero E6 infected with SARS-CoV-2
assay info: inhibition of SARS-CoV-2 cytopathic effect; higher = more antiviral protection, active = above 15
experimental context: 100 nM; 48 h
Catalogue of inhibition of SARS-CoV-2 cytopathic effect values
measured attribute: inhibition of SARS-CoV-2 cytopathic effect (%)

| compound | unit symbol | observed value |
| --- | --- | --- |
| Clc1cccc2c1CN(C1=NCCN1)C2 | % | 3.22 |
| N=C(N)c1ccc(OCCCCCOc2ccc(C(=N)N)cc2)cc1 [pentamidine] | % | -4.34 |
| CC(C)Cc1ccc([C@@H](C)C(=O)NS(C)(=O)=O)cc1 [reparixin] | % | 3.66 |
| COc1ccc(OC)c2c(=S)c3ccccc3[nH]c12 | % | 1.38 |
| CC(O)(C(=O)Nc1ccc(S(=O)(=O)c2ccccc2)cc1)C(F)(F)F (centres undefined) | % | 2.14 |
| O=C(Nc1ccc(Oc2ccc(Cl)cn2)c(Cl)c1)c1ccccn1 | % | 1.75 |
| O=C(NC1(c2ccccc2)CC1)c1c(CN2CCC(N3CCCCC3)CC2)c(-c2cccc(C(F)(F)F)c2)nc2cc(Br)ccc12 | % | 1.73 |
| COc1cc2c(cc1OC)CN(CCc1ccc(NC(=O)c3cccc4c(=O)c5cccc(OC)c5[nH]c34)cc1)CC2 [elacridar] | % | 0.67 |
| NC(=O)c1ccc(I)c([N+](=O)[O-])c1 [iniparib] | % | 0.16 |
| O=C(O)CNC(=O)c1ccccc1 [hippuric-acid] | % | 3.97 |
| CN1CCc2c(c3ccccc3n2Cc2ccccc2)C1 [mebhydrolin] | % | 1.76 |
| N=C(N)N [guanidine] | % | -2.15 |
| C[C@H]1O[C@@H](n2cc(F)c(=O)[nH]c2=O)[C@H](O)[C@@H]1O [doxifluridine] | % | 1.63 |
| CC(C)c1nc(CN(C)C(=O)N[C@H](C(=O)N[C@@H](Cc2ccccc2)C[C@H](O)[C@H](Cc2ccccc2)NC(=O)OCc2cncs2)C(C)C)cs1 [ritonavir] | % | -0.08 |

---

Test system: Vero E6 infected with SARS-CoV-2
assay info: morphology score (similarity to uninfected cells); higher = more like uninfected cells
experimental context: 24 h

| compound | measurement target | morphology score |
| --- | --- | --- |
| c1ccc(CNCc2ccc(CN3CCCNCCNCCCNCC3)cc2)nc1 (10 µM) | Vero E6 infected with SARS-CoV-2 | 0.129 |
| CCCC(=O)O [sodium-butyrate] (10 µM) | Vero E6 infected with SARS-CoV-2 | 0.0558 |
| COc1cccc2cc(-c3nc([C@H]4CC[C@H](C(=O)O)CC4)n4ncnc(N)c34)[nH]c12 (0.833333 µM) | Vero E6 infected with SARS-CoV-2 | 0.174 |
| NS(=O)(=O)c1cc2c(cc1Cl)NC(CC1CCCC1)NS2(=O)=O (stereo not drawn) [cyclopenthiazide] (10 µM) | Vero E6 infected with SARS-CoV-2 | 0.129 |
| CC(=O)Nc1ccccc1 [acetanilide] (10 µM) | Vero E6 infected with SARS-CoV-2 | 0.174 |
| CN(CC(=O)O)C(=N)N [creatine] (10 µM) | Vero E6 infected with SARS-CoV-2 | 0.0148 |
| Cc1ccc2c(c1)c1c3n2CCNC3CCC1 (stereo not drawn) [pirlindole] (10 µM) | Vero E6 infected with SARS-CoV-2 | 0.0112 |
| CC(C)N(CCNC(=O)CN1CCCC1=O)C(C)C [pramiracetam] (10 µM) | Vero E6 infected with SARS-CoV-2 | -0.0542 |

---

Tested on: Vero E6 infected with SARS-CoV-2
assay info: inhibition of SARS-CoV-2 cytopathic effect; higher = more antiviral protection, active = above 15
experimental context: 1 nM; 48 h
Catalogue of inhibition of SARS-CoV-2 cytopathic effect values
measured attribute: inhibition of SARS-CoV-2 cytopathic effect (%)

| molecule | measurement target | observed value |
| --- | --- | --- |
| C=CC(=O)Nc1cccc(Nc2nc(Nc3ccc(Oc4ccnc(C(=O)NC)c4)cc3)ncc2F)c1 | Vero E6 infected with SARS-CoV-2 | -1.65 |
| COc1cc(N)c(Cl)cc1C(=O)N[C@@H]1CCN(CCCOc2ccc(F)cc2)C[C@@H]1OC (racemic) [cisapride] | Vero E6 infected with SARS-CoV-2 | -0.68 |
| C=C[C@]1(C)C[C@@H](OC(=O)CS[C@@H]2C[C@H]3CC[C@@H](C2)N3C)[C@]2(C)[C@H](C)CC[C@]3(CCC(=O)[C@H]32)[C@@H](C)[C@@H]1O [retapamulin] | Vero E6 infected with SARS-CoV-2 | -0.46 |
| CC(=O)Oc1c(C)cc(OCC(O)CNC(C)C)c(C)c1C (configuration not stated) [metipranolol] | Vero E6 infected with SARS-CoV-2 | -0.83 |
| COc1cc2nccc(Oc3ccc(NC(=O)NC4CC4)c(Cl)c3)c2cc1C(N)=O [lenvatinib] | Vero E6 infected with SARS-CoV-2 | -1.78 |
| CCC1(c2ccc(N)cc2)CCC(=O)NC1=O (configuration not stated) [aminoglutethimide] | Vero E6 infected with SARS-CoV-2 | -0.9 |
| CCOC(=O)c1ncc2[nH]c3cccc(OC(C)C)c3c2c1C | Vero E6 infected with SARS-CoV-2 | 2.48 |
